Tested on: SW1271 (Small Cell Lung Carcinoma)
ASSAY COMMENT: combination Emax (second highest fraction inhibited in the dose matrix, 72 h); higher = more inhibition; extreme values may be limits of the assay
ENDPOINT: combination Emax

- MOLECULE: "CCN(CCO)CCCOc1ccc2c(Nc3cc(CC(=O)Nc4cccc(F)c4)[nH]n3)ncnc2c1 [AZD2811] + O=C(c1cc(Cc2n[nH]c(=O)c3ccccc23)ccc1F)N1CCN(C(=O)C2CC2)CC1 [Olaparib] (first compound max 1 µM, 7x7, partner max 10 µM)"
  ENDPOINT: "combination Emax"
  VALUE REPORTED: 0.17
- MOLECULE: "O=C(c1cc(Cc2n[nH]c(=O)c3ccccc23)ccc1F)N1CCN(C(=O)C2CC2)CC1 [Olaparib] + CN(CC[C@H](CSC1=CC=CC=C1)NC2=C(C=C(C=C2)S(=O)(=O)NC(=O)C3=CC=C(C=C3)N4CCC(CC4)[C@H](C5=CC=CC=C5C6=CC=C(C=C6)Cl)O)S(=O)(=O)C(F)(F)F)CCO [AZD4320] (first compound max 10 µM, 7x7, partner max 1 µM)"
  ENDPOINT: "combination Emax"
  VALUE REPORTED: 0.21
- MOLECULE: "C=CCn1c(=O)c2cnc(Nc3ccc(N4CCN(C)CC4)cc3)nc2n1-c1cccc(C(C)(C)O)n1 [AZD1775] + O=C(c1cc(Cc2n[nH]c(=O)c3ccccc23)ccc1F)N1CCN(C(=O)C2CC2)CC1 [Olaparib] (first compound max 1 µM, partner max 10 µM)"
  ENDPOINT: "combination Emax"
  VALUE REPORTED: 0.619
- MOLECULE: "CC1(C)CCC(CN2CCN(c3ccc(C(=O)NS(=O)(=O)c4ccc(NCC5CCOCC5)c([N+](=O)[O-])c4)c(Oc4cnc5[nH]ccc5c4)c3)CC2)=C(c2ccc(Cl)cc2)C1 [Venetoclax] + C1CN(CCC1(C(=O)N[C@@H](CCO)C2=CC=C(C=C2)Cl)N)C3=NC=NC4=C3C=CN4 [Capivasertib] (first compound max 1 µM, 7x7, partner max 3 µM)"
  ENDPOINT: "combination Emax"
  VALUE REPORTED: 0.262
